Known IC50 of a selection of compounds
- System: HIV-1 (NL4-3 strain)
- method: Assay for Inhibition of HIV Replication (kinetic assay, MT4-gag-GFP reporter cell line; VIKING)
- Type: cell-based
- test-parameters: MT4-GFP cells infected with HIV-1 NL4-3; 100% normal human serum (NHS); read-out: VIKING IP50 (nM) with 100% NHS
Write down the numeric answer in nM and omit the unit.

The following compounds have reported results that may help.
CCCN1C2C3CCc4c(C(=O)NCc5cccc(Cl)c5F)c(=O)c(O)c(n43)C(=O)N2C[C@@H]1C (stereo partly shown) [Compound 108]	80.1
C[C@H]1CN2C(=O)c3c(O)c(=O)c(C(=O)NCc4cccc(Cl)c4F)c4n3C(CC4)C2N1C (stereo partly shown) [Compound 104]	71.4
CCNC1CC2C3OCCCN3C(=O)c3c(O)c(=O)c(C(=O)NCc4ccc(F)cc4F)c1n32 (stereo not shown) [Compound 201]	2060

Could you now look at the following compound, please?
Query :: What value of measured IC50 is listed for CN1CCN2C(=O)c3c(O)c(=O)c(C(=O)NCc4ccc(F)cc4F)c4n3C(CC4)C12C (stereo not shown) ?
Result :: 11.3
